Collected literature values of pKi measured for UniProt:P18825.
By convention, pKi is the negative base-10 log of a molar concentration.

Worked cases, pKi given:
Molecule	pKi
CC1=C(C(=O)NCCCN2CCC(c3ccc(F)cc3C#N)CC2)[C@@H](c2ccc(F)c(F)c2)CC(=O)N1C	5.41
COc1cc2c(cc1OC)C1=NO[C@@H](CN3CCN(C/C=C(\C)c4ccc(F)cc4)CC3)[C@@H]1CO2	9.52
COc1cc2c(cc1OC)C1=NO[C@@H](CN3CCN(C/C(C)=C/c4cccnc4)CC3)[C@@H]1CO2	8.68
CC(Oc1ccccc1-c1ccccn1)C1=NCCN1 (stereo not given)	5.90
CN(C)C[C@@H]1CC2c3ccccc3Oc3ccc(Cl)cc3[C@H]2O1 (stereo not given in full)	6.17

[Q] Lab request: please report pKi under test system UniProt:P18825 for CC[C@H]1[C@@H]2c3ccccc3C[C@]12c1c[nH]cn1
[A] 9.77

[Q] Lab request: please report pKi under test system UniProt:P18825 for COc1cc2c(cc1OC)C1=NO[C@@H](CN3CCN(C/C=C/c4ccc(Cl)cc4)CC3)[C@@H]1CO2
[A] 8.00

[Q] Lab request: please report pKi under test system UniProt:P18825 for CCC1(c2c[nH]cn2)Cc2ccc(F)cc2C1 (stereo not given)
[A] 7.86

[Q] Lab request: please report pKi under test system UniProt:P18825 for COc1cc2c(cc1OC)C1=NO[C@@H](CN3CCN(C/C=C(\C)c4cccs4)CC3)[C@@H]1CO2
[A] 9.70

----------
Collected literature values of Ki measured for Alpha-2C adrenergic receptor (Homo sapiens, UniProt P18825).
# Study target: Alpha-2C adrenergic receptor (Homo sapiens, UniProt P18825)
# Sequence (P18825 whole entry): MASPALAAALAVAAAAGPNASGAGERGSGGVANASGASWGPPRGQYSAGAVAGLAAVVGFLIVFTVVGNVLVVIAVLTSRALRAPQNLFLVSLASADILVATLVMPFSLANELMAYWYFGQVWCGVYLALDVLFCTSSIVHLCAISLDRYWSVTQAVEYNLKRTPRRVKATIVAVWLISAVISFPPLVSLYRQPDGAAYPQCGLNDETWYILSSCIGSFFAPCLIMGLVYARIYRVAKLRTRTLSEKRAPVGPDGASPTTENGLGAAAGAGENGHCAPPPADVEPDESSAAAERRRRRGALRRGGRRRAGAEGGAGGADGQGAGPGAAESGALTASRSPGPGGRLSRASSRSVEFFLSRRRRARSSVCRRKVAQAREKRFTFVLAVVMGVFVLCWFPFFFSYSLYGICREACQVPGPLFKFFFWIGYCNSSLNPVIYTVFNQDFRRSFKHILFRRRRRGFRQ
State the answer as a number, implicitly in nM.

[Q] Lab request: please report Ki under test system Alpha-2C adrenergic receptor (Homo sapiens, UniProt P18825) for C1CCC(CN[C@H]2C3C4CC5C6C4CC3C6C52)CC1 (stereo not given in full)
[A] 1510

[Q] Lab request: please report Ki under test system Alpha-2C adrenergic receptor (Homo sapiens, UniProt P18825) for COc1cc2c(cc1OC)C1=NO[C@@H](CN3CCN(C/C=C(\C)c4ccc(F)cc4F)CC3)[C@@H]1CO2
[A] 0.8

[Q] Lab request: please report Ki under test system Alpha-2C adrenergic receptor (Homo sapiens, UniProt P18825) for CCC[C@H]1c2ccccc2[C@H]2C[C@]21c1c[nH]cn1 (relative stereo)
[A] 1.48

[Q] Lab request: please report Ki under test system Alpha-2C adrenergic receptor (Homo sapiens, UniProt P18825) for c1ccc2c(c1)C[C@]1(c3c[nH]cn3)C[C@H]21 (stereo in doubt; (-)-1)
[A] 0.129

[Q] Lab request: please report Ki under test system Alpha-2C adrenergic receptor (Homo sapiens, UniProt P18825) for CO/C(O)=C1\C(C)=NC(C)=C(C(=O)NCCCN2CCC(c3ccccc3)(c3ccccc3)CC2)C1c1ccc2ccccc2c1 (stereo not given)
[A] 631

[Q] Lab request: please report Ki under test system Alpha-2C adrenergic receptor (Homo sapiens, UniProt P18825) for CN(CCCc1cccc(F)c1)[C@H]1C2C3CC4C2C(=O)C2C4C3C21 (stereo not given in full)
[A] 2790

[Q] Lab request: please report Ki under test system Alpha-2C adrenergic receptor (Homo sapiens, UniProt P18825) for CN1CCc2c(c3cccc4c3n2CCc2ccccc2-4)C1
[A] 446

[Q] Lab request: please report Ki under test system Alpha-2C adrenergic receptor (Homo sapiens, UniProt P18825) for Fc1ccc(SCCCN2CCN(c3ccccn3)CC2)cc1
[A] 45.1

[Q] Lab request: please report Ki under test system Alpha-2C adrenergic receptor (Homo sapiens, UniProt P18825) for COc1ccc(CN(C)[C@H]2C3C4CC5C6C4CC3C6C52)cc1OC (stereo not given in full)
[A] 993

----------
Collected literature values of pKi measured for Alpha-2C adrenergic receptor (Homo sapiens, UniProt P18825).
# Study target: Alpha-2C adrenergic receptor (Homo sapiens, UniProt P18825)
# Sequence (P18825 whole entry): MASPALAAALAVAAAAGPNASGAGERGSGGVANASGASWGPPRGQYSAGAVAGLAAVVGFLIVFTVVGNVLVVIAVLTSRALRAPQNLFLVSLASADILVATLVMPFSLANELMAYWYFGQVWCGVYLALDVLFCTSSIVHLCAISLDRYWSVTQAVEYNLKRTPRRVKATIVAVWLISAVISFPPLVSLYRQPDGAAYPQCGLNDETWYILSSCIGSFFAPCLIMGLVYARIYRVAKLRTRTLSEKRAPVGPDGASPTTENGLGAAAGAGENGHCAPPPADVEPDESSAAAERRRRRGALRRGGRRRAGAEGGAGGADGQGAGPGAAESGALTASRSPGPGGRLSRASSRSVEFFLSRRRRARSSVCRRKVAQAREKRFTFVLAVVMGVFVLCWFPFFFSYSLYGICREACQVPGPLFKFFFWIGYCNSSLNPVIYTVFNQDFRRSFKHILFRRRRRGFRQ
By convention, pKi is the negative base-10 log of a molar concentration.

Compound	Reported value
O=C1C2C3CCC(C3)C2C(=O)N1CC1CCCCC1CN1CCN(c2nsc3ccccc23)CC1 (stereo not given)	7.96
COc1cc2c(cc1OC)C1=NO[C@@H](CN3CCN(C/C=C/c4ccc(F)cc4)CC3)[C@@H]1CO2	7.64
CC1=C(C(=O)NCCCN2CCC(C#N)(c3ccc(F)cc3C#N)CC2)[C@@H](c2ccc(F)c(F)c2)CC(=O)N1C	5.19

[Q] Form field: reported pKi of CO/C(O)=C1\C(C)=NC(C)=C(C(=O)NCCCN2CCC(c3ccccc3)CC2)C1c1ccc(Cl)c([N+](=O)[O-])c1 (stereo not given)
[A] 7.32

[Q] Form field: reported pKi of COc1cc2c(cc1OC)C1=NO[C@@H](CN3CCN(C/C(C)=C/c4cc(F)ccc4F)CC3)[C@@H]1CO2
[A] 9.70

[Q] Form field: reported pKi of CN(Cc1cccc(F)c1)[C@H]1C2C3CC4C2C(=O)C2C4C3C21 (stereo not given in full)
[A] 5.30

[Q] Form field: reported pKi of C1CCC(CN2CCCC2)CC1
[A] 6.06

[Q] Form field: reported pKi of COc1cccc2c1CCC[C@H]2CN(C)CCc1ccc2ccoc2c1
[A] 8.68

[Q] Form field: reported pKi of CC(Oc1ccccc1-c1ccncc1)C1=NCCN1 (stereo not given)
[A] 5.84

[Q] Form field: reported pKi of CN(CCc1cccc(F)c1)[C@H]1C2C3CC4C2C(=O)C2C4C3C21 (stereo not given in full)
[A] 5.32

----------
# Study target: Alpha-2C adrenergic receptor (Homo sapiens, UniProt P18825)
# Sequence (P18825 whole entry): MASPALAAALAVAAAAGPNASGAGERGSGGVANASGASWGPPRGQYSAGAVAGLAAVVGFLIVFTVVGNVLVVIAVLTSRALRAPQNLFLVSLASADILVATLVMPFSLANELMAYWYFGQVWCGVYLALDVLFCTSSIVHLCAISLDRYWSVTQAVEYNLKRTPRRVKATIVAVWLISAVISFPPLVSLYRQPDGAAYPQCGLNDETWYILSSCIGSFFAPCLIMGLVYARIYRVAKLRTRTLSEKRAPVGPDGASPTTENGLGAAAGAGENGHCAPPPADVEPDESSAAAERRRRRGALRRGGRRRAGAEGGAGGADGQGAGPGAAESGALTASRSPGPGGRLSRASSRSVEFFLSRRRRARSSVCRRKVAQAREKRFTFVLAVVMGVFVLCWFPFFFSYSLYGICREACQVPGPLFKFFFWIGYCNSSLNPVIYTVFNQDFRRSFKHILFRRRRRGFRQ
pKi: −log10 of the molar value.
Collected literature values of pKi measured for Alpha-2C adrenergic receptor (Homo sapiens, UniProt P18825).
Classification by pKi | ranges: class 0: < 6; class 1: ≥ 6 and < 8; class 2: ≥ 8

Solved entries (count: 5):
Compound	Assigned category
CC1=C(C(=O)NCCCN2CCC(C#N)(c3ccc(F)cc3F)CC2)[C@@H](c2ccc(F)c(F)c2)CC(=O)N1C	class 0
Brc1c(Nc2ncc[nH]2)ccc2nccnc12	class 0
CO/C(O)=C1\C(C)=NC(C)=C(C(=O)N(C)CCCN2CCC(c3ccccc3)(c3ccccc3)CC2)C1c1ccc([N+](=O)[O-])cc1 (centres undefined)	class 1
COc1c(OCCF)cccc1C(=O)C1CCN(CCc2ccc(F)cc2)CC1	class 1
COc1cc2c(cc1OC)C1=NO[C@@H](CN3CCN(C/C(C)=C/c4ccccc4)CC3)[C@@H]1CO2 (stereo in doubt; (+)15f)	class 2

[Q] Tag the class for COc1ccccc1N1CCN(CCn2c(=O)[nH]c3scc(-c4ccccc4)c3c2=O)CC1
[A] class 1

[Q] Tag the class for CC(Oc1ccccc1-c1ccsc1)C1=NCCN1 (centres undefined)
[A] class 1

[Q] Tag the class for C[C@]12CC1(c1c[nH]cn1)Cc1ccccc12 (single isomer, unassigned)
[A] class 2

[Q] Tag the class for Cc1ccc(N2CCN(Cc3nc4ccccc4[nH]3)CC2)cc1C
[A] class 0

[Q] Tag the class for COc1cc2c(cc1OC)C1=NO[C@@H](CN3CCN(C/C(C)=C/c4ccco4)CC3)[C@@H]1CO2
[A] class 2

[Q] Tag the class for CSc1cc(F)ccc1NCC1=NCCN1
[A] class 1

[Q] Tag the class for O=C(O)[C@H]1O[C@@H](Oc2c(-c3ccc(O)c(O)c3)oc3cc(O)cc(O)c3c2=O)[C@H](O)[C@@H](O)[C@@H]1O
[A] class 0

[Q] Tag the class for CC(Oc1ccccc1-c1ccccc1)C1=NCCC1 (centres undefined)
[A] class 0

[Q] Tag the class for CC(Oc1ccccc1-c1ccccc1O)C1=NCCN1 (centres undefined)
[A] class 0

[Q] Tag the class for C[C@@H]1CCCN1CCCOc1ccc(C2=NNC(=O)[C@H]3C[C@@H]23)cc1
[A] class 0

[Q] Tag the class for CCCN1CCN(c2ccc3c(c2)C(N(C)C(=O)OCc2ccccc2)CCC3)CC1 (centres undefined)
[A] class 0
